# protocol_description: chemical genetic growth profiling, strain panel (AID 1159580);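 further: tested at 20 µM; growth read once vehicle control cultures reached saturation at 30 °C; 1 = growth at the plate median or of vehicle wells; lower values mean less growth of the strain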
# test_parameters: S. cerevisiae deletion strains, growth OD, locus YDL035C, strain GPR1
Among all 5,500 compounds or so, about 2,000 (36%) were called active. Not shown: some 18% with an inconclusive outcome. No stated cut-off is given here; in the data, active means normalized growth mostly below about 0.91 (no sharp cut-off); inconclusive means no clear call, values can overlap the other calls; inactive means mostly above about 0.92. This is one part of the list.
Respond with a class label; see active, inactive

The following molecules have reported results that may help.
molecule	category_label
COc1cc(O)c2c(c1)C(=O)c1cc(C)cc(O)c1C2=O	inactive
COc1cc2cccc(OC)c(=O)c2c(OC)c1OC	inactive

Here is the next item to consider.
Exercise: Which outcome was assigned to CCCC(=O)Nc1ccc(OCC(O)CNC(C)C)c(C(C)=O)c1 (stereo not given) in this test?
Solution: inactive

----------
Below, each of the molecules is paired with its reported normalized growth value.
# protocol_description: chemical genetic growth profiling, strain panel (AID 1159580)
# test_parameters: S. cerevisiae deletion strains, growth OD, locus YPR111W, strain DBF20, hits give low values
The whole screen tested about 5,500 compounds, of which about 2,000 (36%) were called active. Not shown: some 18% with an inconclusive outcome. The list shows a part of the results.

The examples below pair each entry with its known result.
>>> print(df.to_string())
                                   molecule       measurement
0  CC1SC(c2cccnc2)N(c2ccc(F)cc2F)C1=O (stereo not given)  0.998 (inactive)
1    O=S(=O)(Nc1c(F)cccc1F)c1ccc(Cl)c(Cl)c1  0.934 (inactive)
2         CC(C)Sc1c(Cl)cccc1NC(=O)Nc1ccccc1  0.951 (inactive)
3  COC(=O)c1cccc(NS(=O)(=O)c2ccc(Cl)c(Cl)c2)c1  0.972 (inactive)

Exercise: Answer with the recorded normalized growth of `Cn1cc(Br)c(-c2cccc(NS(=O)(=O)c3ccc(Cl)cc3)c2)n1` only.
Solution: 0.985 (inactive)

----------
Below, each of the compounds is paired with its reported normalized growth value.
# protocol_description: chemical genetic growth profiling, strain panel (AID 1159580);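 further: tested at 20 µM; growth read once vehicle control cultures reached saturation at 30 °C; 1 = growth at the plate median or of vehicle wells; lower values mean less growth of the strain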
# test_parameters: S. cerevisiae deletion strains, growth OD, locus YDL108W, strain KIN28, hits give low values
Screen size: about 5,500 compounds; about 2,000 (36%) were called active. About 18% were inconclusive and are not listed. The list shows a part of the results.
I only need the number, thanks.

In [3]: df
Out[3]:
                                   compound       assay_metric  measurement
0  N#CC(C(=O)Nc1cccc(C(F)(F)F)c1)C(=S)Nc1ccccc1Cl (centres undefined)  normalized growth         0.99
1  CC1SC(c2cccnc2)N(c2ccc(F)cc2F)C1=O (centres undefined)  normalized growth            1

Exercise: Answer with the recorded normalized growth of `CCOC(=O)c1ccc(N=Cc2cc(Cl)cc(Cl)c2O)cc1` only.
Solution: 0.948

Exercise: Answer with the recorded normalized growth of `CC(C)OC(=O)Nc1cc(Cl)cc(Cl)c1` only.
Solution: 0.98

----------
# protocol_description: chemical genetic growth profiling, strain panel (AID 1159580);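 further: tested at 20 µM; growth read once vehicle control cultures reached saturation at 30 °C; 1 = growth at the plate median or of vehicle wells; lower values mean less growth of the strain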
# test_parameters: S. cerevisiae deletion strains, growth OD, locus YDR318W, strain mcm21, hits give low values
The campaign covered roughly 5,500 compounds. About 2,000 (36%) were called active. Inconclusive results (about 18%) are left out. The list shows a part of the results.
Below, each of the compounds is paired with its reported normalized growth value.

>>> print(df.to_string())
                                   compound       measurement
0  COc1ccccc1OCC(O)COC(N)=O (stereo not drawn)  0.993 (inactive)
1  CC(=O)O[C@@H]1C2CC[C@@H]3C1(C[C@@H](O)[C@@]1(O)[C@@H](C[C@H](O)C1(C)C)[C@]3(C)O)C[C@@]2(C)O (stereo partly drawn)  0.991 (inactive)
2  COc1cc2c(cc1OC)C(C)NCC2 (stereo not drawn)  0.986 (inactive)
3            O=c1c(O)c(-c2ccccc2)oc2ccccc12  0.963 (inactive)
4  COc1ccc(-c2c(O)c3c(OC)c4c(cc3oc2=O)OC(C)(C)C=C4)cc1  0.936 (inactive)

Exercise: Answer with the recorded normalized growth of `O=c1c(O)c(-c2ccccc2)oc2cc(O)ccc12` only.
Solution: 0.708 (active)

Exercise: Answer with the recorded normalized growth of `C/C(=C\CO)CC[C@H](C)CCC[C@H](C)CCCC(C)C` only.
Solution: 1.13 [resistant] (active)

Exercise: Answer with the recorded normalized growth of `CN1CCC[C@H]1c1cccnc1` only.
Solution: 0.983 (inactive)

Exercise: Answer with the recorded normalized growth of `CN1C(=O)CC[C@H]1c1cccnc1` only.
Solution: 1.02 (inactive)

Exercise: Answer with the recorded normalized growth of `CN1CCN(C2=Nc3cc(Cl)ccc3Nc3ccccc32)CC1` only.
Solution: 1.02 (inactive)

Exercise: Answer with the recorded normalized growth of `O=C1c2cccc(O)c2C(=O)c2c(O)cccc21` only.
Solution: 0.772 (active)

Exercise: Answer with the recorded normalized growth of CC(=O)OC1CCC2(O)CC1(C)CCC1C2CC1(C)C (stereo not drawn) only.
Solution: 0.977 (inactive)

Exercise: Answer with the recorded normalized growth of CC(=O)OC1CCC23CC1(C)CCC2C(C)(C)CC3OC(C)=O (stereo not drawn) only.
Solution: 1 (inactive)

Exercise: Answer with the recorded normalized growth of `CCC[C@@H]1C[C@@H](C(=O)N[C@H]([C@H]2O[C@H](SC)[C@H](O)[C@@H](O)[C@H]2O)[C@H](C)O)N(C)C1` only.
Solution: 0.989 (inactive)

Exercise: Answer with the recorded normalized growth of `COc1cc(OC)c2c(OC)c(-c3ccc4c(c3)OCO4)c(=O)oc2c1` only.
Solution: 0.976 (inactive)

Exercise: Answer with the recorded normalized growth of C=C(C)C1Cc2c(ccc3c(=O)c4c(oc23)COc2cc(OC)c(OC)cc2-4)O1 (stereo not drawn) only.
Solution: 1.01 (inactive)

Exercise: Answer with the recorded normalized growth of `Cc1c(NC(C)C)c(=O)n(-c2ccccc2)n1C` only.
Solution: 0.98 (inactive)

Exercise: Answer with the recorded normalized growth of `CCCCN(CC)c1c([N+](=O)[O-])cc(C(F)(F)F)cc1[N+](=O)[O-]` only.
Solution: 1.01 (inactive)

Exercise: Answer with the recorded normalized growth of `CC(C)=CCC/C(C)=C/CO` only.
Solution: 0.995 (inactive)

Exercise: Answer with the recorded normalized growth of `O=c1c(O)c(-c2ccccc2)oc2ccc3occc3c12` only.
Solution: 0.799 (active)

Exercise: Answer with the recorded normalized growth of CC(C)C1CCC(C(=O)N[C@@H](Cc2ccccc2)C(=O)O)CC1 (stereo partly drawn) only.
Solution: 1.01 (inactive)

Exercise: Answer with the recorded normalized growth of `COc1cc(Cc2cnc(N)nc2N)cc(OC)c1OC` only.
Solution: 0.99 (inactive)

Exercise: Answer with the recorded normalized growth of `CCCN(CCC)c1c([N+](=O)[O-])cc(C(F)(F)F)cc1[N+](=O)[O-]` only.
Solution: 1.01 (inactive)

----------
# protocol_description: chemical genetic growth profiling, strain panel (AID 1159580);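 further: tested at 20 µM; growth read once vehicle control cultures reached saturation at 30 °C; 1 = growth at the plate median or of vehicle wells; lower values mean less growth of the strain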
# test_parameters: S. cerevisiae deletion strains, growth OD, locus YJR016C, strain ILV3
Out of some 5,500 compounds screened, about 2,000 (36%) were called active. Not shown: some 18% with an inconclusive outcome. Cut-off read from the data, not from the text of the source: active = normalized growth mostly below about 0.91 (no sharp cut-off); inconclusive = no clear call, values can overlap the other calls; inactive = mostly above about 0.92. Some of the results follow.
Respond with a class label; see y for active, n for inactive

The following compounds have reported results that may help.
                                   compound  category_label
0  O=C(Nc1ccccc1Sc1ccc(C(F)(F)F)cc1[N+](=O)[O-])C(Cl)Cl               n
1   CC(=O)c1ccc(Sc2ccccc2)c([N+](=O)[O-])c1               y
2  CCOC(=O)C(O)(c1ccc(NC(=O)c2ccc(Cl)c(Cl)c2)cc1)C(F)(F)F (stereo unspecified)               n
3    FC(F)(F)c1c2c(nc3cc(-c4ccco4)nn13)CCC2               n
4  O=C1C(NCc2ccccc2)=C(NCc2ccccc2)C(=O)c2ccccc21               y
5          CCOC(=O)c1cnc(-c2ccccn2)[nH]c1=O               n
6  COc1cc(C2SCCS2)cc(Br)c1OC(=O)NC(=O)c1c(Cl)cccc1Cl               n
7       O=C(NCc1ccc2c(c1)OCO2)c1cc2ccccc2s1               y
8  COC(=O)c1cccc(NS(=O)(=O)c2ccc(Cl)c(Cl)c2)c1               n
9  Cc1cc(C)c2cc(C(=O)NCCNc3ccc(C(F)(F)F)cn3)[nH]c2c1               n

Exercise: Which outcome was assigned to `CC(C)OC(=O)Nc1cc(Cl)cc(Cl)c1` in this test?
Solution: n
